- MEASURED TARGET: T1, TCE-30
- T1 construct: anti-CD3 scFv H101A; anti-TROP2 Fab F108A
- EXPERIMENTAL DETAILS: competition ELISA, peptide titrated vs TCE binding to captured CD3
pIC50: −log10 of the molar value. Ends that are not written are not given here.
MEASURED QUANTITY: pIC50

- BINDER: "YLCGPDTDETLACY (cysteine pairing not given here; also: biotinylated, site not given here) [Peptide-13]"
  VALUE MEASURED: "< 4.00"

YLCGPDADETLACY (cysteine pairing not given here; also: biotinylated when captured in ELISA) [Peptide-12] has a reported pIC50 of < 4.00
